# test protocol: Inhibition constant against dipeptidyl peptidase IV
assay endpoint: Ki (nM)
The answer is to be given in nM; state only the numeric part.

QUERY: # query: Ki of entry CC(C)[C@H](N)C(=O)N1CCC[C@H]1B(O)O [TALABOSTAT]
RESULT: 2

----------
Overview of reported pIC50 across a group of compounds:
# test protocol: Inhibitory concentration against dipeptidyl peptidase IV
Just the number, please; pIC50 means minus log10 of the concentration in mol/L.

Known pIC50 results, listed for orientation:
N[C@@H](C(=O)N1CC[C@@H]1C(=O)c1nccs1)C1CCCCC1 = 7.40
CC(C)(C)NCC(=O)N1CCC1C(=O)c1nc2ccccc2s1 (centres undefined) = 7.00
N[C@@H](C(=O)N1CCC[C@@H]1C(=O)c1nccs1)C1CCCCC1 = 6.00

QUERY: # query: pIC50 of entry N[C@H](C(=O)N1CCSC1)C1CCCCC1
RESULT: 6.82

QUERY: Let us now turn to O=C(c1nc2ccccc2s1)[C@@H]1CCCN1C(=O)CNC1CCCCC1
RESULT: 6.52

QUERY: Let us now turn to N#C[C@@H]1CCCN1C(=O)[C@@H](N)C1CCCCC1
RESULT: 8.10

QUERY: Let us now turn to C[C@H](N)C(=O)N1CCCC1P(=O)(Oc1ccccc1)Oc1ccccc1 (some centres undefined)
RESULT: 7.82

QUERY: Let us now turn to CCC(C)C(N)C(=O)N1CCC[C@H]1C(=O)c1nc2ccccc2s1 (some centres undefined)
RESULT: 7.00

QUERY: Let us now turn to N[C@H](C(=O)N1CCCC1)C1CCCCC1
RESULT: 6.90

QUERY: Let us now turn to O=C(c1nc2ccccc2s1)C1CCN1C(=O)[C@@H]1C[C@@H]2CCCC[C@@H]2N1 (some centres undefined)
RESULT: 6.94

QUERY: Let us now turn to CC[C@H](C)[C@H](N)C(=O)N1CC[C@H]1C(=O)c1nc2ccccc2s1
RESULT: 6.70

QUERY: Let us now turn to O=C(c1nc2ccccc2s1)[C@@H]1CCN1C(=O)CNC1CCCCC1
RESULT: 6.72
